Biological target: murine PCSK9 (mouse, UniProt Q80W65 35-694, limits assumed)
Sequence (Q80W65 35-694 limits assumed): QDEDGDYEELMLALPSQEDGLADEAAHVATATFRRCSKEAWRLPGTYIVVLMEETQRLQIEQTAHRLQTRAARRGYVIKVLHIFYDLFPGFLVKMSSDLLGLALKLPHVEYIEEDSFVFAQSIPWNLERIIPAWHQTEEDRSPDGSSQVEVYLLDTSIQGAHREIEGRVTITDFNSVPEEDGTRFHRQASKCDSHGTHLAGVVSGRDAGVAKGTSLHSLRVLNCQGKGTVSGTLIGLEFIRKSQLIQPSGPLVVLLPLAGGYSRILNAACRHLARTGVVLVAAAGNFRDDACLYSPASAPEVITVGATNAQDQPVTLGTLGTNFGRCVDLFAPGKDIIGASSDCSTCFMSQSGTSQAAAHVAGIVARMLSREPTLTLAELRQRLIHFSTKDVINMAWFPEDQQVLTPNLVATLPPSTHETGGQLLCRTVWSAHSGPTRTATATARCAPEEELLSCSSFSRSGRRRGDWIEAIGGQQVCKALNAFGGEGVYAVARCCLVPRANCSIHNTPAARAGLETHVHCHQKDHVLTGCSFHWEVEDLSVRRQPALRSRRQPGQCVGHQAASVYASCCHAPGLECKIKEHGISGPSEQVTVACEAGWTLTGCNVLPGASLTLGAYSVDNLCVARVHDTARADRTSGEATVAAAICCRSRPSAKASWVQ
Assay: cell-based or functional assay
recorded.endpoint: Fab IC50 (nM), inhibition of PCSK9 on LDL uptake

AX137 Fab (Fab, V domains shown) VH: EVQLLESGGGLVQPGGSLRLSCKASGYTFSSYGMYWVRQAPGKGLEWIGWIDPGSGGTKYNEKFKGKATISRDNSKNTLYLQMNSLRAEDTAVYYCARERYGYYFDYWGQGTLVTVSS VL: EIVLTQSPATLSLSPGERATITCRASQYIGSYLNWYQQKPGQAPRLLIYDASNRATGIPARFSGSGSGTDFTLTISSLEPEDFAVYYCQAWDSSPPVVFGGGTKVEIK : 27.4
AX114 Fab (Fab, V domains shown) VH: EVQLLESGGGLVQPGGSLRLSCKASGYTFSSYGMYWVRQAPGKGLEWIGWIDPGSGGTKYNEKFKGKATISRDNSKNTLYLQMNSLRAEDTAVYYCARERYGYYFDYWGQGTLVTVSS VL: EIVLTQSPATLSLSPGERATITCRASQYVGTYLNWYQQKPGQAPRLLIYDASNRATGIPARFSGSGSGTDFTLTISSLEPEDFAVYYCQVWDSSPPVAFGGGTKVEIK : 326
AX139 Fab (Fab, V domains shown) VH: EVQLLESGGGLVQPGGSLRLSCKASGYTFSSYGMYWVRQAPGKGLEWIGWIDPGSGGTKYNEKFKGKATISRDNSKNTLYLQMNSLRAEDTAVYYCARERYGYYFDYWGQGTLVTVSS VL: EIVLTQSPATLSLSPGERATITCRASQYVGSYLNWYQQKPGQAPRLLIYDAANRATGIPARFSGSGSGTDFTLTISSLEPEDFAVYYCQVWDSSPPVVFGGGTKVEIK : 22.9
AX132 Fab (Fab, V domains shown) VH: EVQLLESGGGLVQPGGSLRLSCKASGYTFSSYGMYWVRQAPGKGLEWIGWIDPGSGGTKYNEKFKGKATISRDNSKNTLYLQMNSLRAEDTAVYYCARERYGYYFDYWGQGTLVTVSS VL: EIVLTQSPATLSLSPGERATITCRASQYVGSYLNWYQQKPGQAPRLLIYDASNRATGIPARFSGSGSGTDFTLTISSLEPEDFAVYYCQVWDSSPPVVFGGGTKVEIKR : 26.9
